Values from PubChem BioAssay (NCI)

Tested on: SNB-75 CNS
assay-remarks: NCI tumour cell line growth inhibition, 48 h; in the data active means GI50 below about 0.43 µM; inactive means the rest
Mark one answer only. Choices: active, inactive

Check out these entries, answers already filled in.
• CCCCCCCCCCCCNC(=O)[C@H]1CSC(c2cc3ccccc3s2)N1 (stereo partly drawn) = inactive
• COc1ccccc1-c1cc(/C=C2\C(=O)Nc3ncc(Br)cc32)cc(Br)c1O = inactive
• C[C@H](N)C(=O)N[C@@H]1[C@H]2C(=C(O)C[C@@H](O)[C@@H]2O)C(=O)O[C@]1(C)C(Cl)Cl = active

Recorded test call requested for "CC(C)CCSC1=CC(=O)c2ccccc2C1=O"
inactive

Recorded test call requested for "CC(/C=C/C(=O)c1sc(-n2nc(-c3ccccc3)cc2-c2ccccc2)nc1C)=C\c1ccccc1"
inactive

Recorded test call requested for "O=Nc1ccc(O)c2ccccc12"
inactive

Recorded test call requested for "COc1cccc(Cn2c(-c3nonc3N)nc3ccccc32)c1"
active

Recorded test call requested for "COc1cc(-c2nc(NC(C)=O)sc2-c2ccnc(NCCNS(=O)(=O)c3ccccc3)n2)ccc1Cl"
inactive

Recorded test call requested for "CCOC(=O)C(Cc1c[nH]c2ccc([N+](=O)[O-])cc12)(NC(C)=O)C(=O)OCC"
inactive

Recorded test call requested for "COc1ccccc1/C=C/C(=O)c1c(O)cc2occc2c1OC"
inactive

Recorded test call requested for Nc1ccccc1SC(CC(=O)c1ccccc1)c1ccc([N+](=O)[O-])cc1 (stereo not drawn)
inactive

Recorded test call requested for "Cc1nc2ccccn2c1NC(=O)NNC(=S)Nc1ccc(Br)cc1"
inactive

Recorded test call requested for "COC(=O)[C@H]1C(=O)[C@@]2(C)[C@H]([C@H](OC(=O)c3ccccc3)[C@]3(O)C[C@H](OC(=O)[C@H](O)[C@@H](NC(=O)c4ccc(F)cc4)c4ccccc4)C(C)=C1C3(C)C)[C@]1(OC(C)=O)CO[C@@H]1C[C@@H]2O"
active

* * *

Test system: RPMI-8226 leukemia
assay-remarks: NCI tumour cell line growth inhibition, 48 h
Would you mind telling me the reported TGI of each entry?
Numbers only, in µM.

* COc1ccc(CCN2CCCN3C2=Nc2ccccc2S3(=O)=O)cc1 | 53.5

Now turn to the next compound.
Fill: TGI (RPMI-8226 leukemia) for this compound "c1ccc(CSc2ccccc2CN2CCN(Cc3ccccc3SCc3ccccc3)CCN(Cc3ccccc3SCc3ccccc3)CC2)cc1"
18

* * *

System: SNB-19 CNS
assay-remarks: NCI tumour cell line growth inhibition, 48 h
quantity-name: TGI

Recorded TGI, per entry:
- Cc1ccc(S(=O)(=O)N2c3ccccc3[C@H]3CCc4c([nH]c5ccccc45)[C@H]32)cc1: > 100 µM
- O=c1[nH]c(=O)n(C2OC(CO)C(O)C2O)c2ncc(-c3ccc(-c4ccccc4)cc3)nc12 (stereo not drawn): > 20 µM
- Cc1c(C#N)c(N)[nH]c(=S)c1C#N: > 100 µM

Record TGI per entry; entries follow.
1. O=C1c2sc(-c3ccc(F)cc3)cc2-n2cccc21
2. Cc1cc(=O)oc2cc(SC(=O)N(C)C)ccc12
3. CC(C)(Br)C(Br)CCC(=CCBr)CBr (mixture of isomers)
4. COc1ccc(/C=C/C(=O)C(C)(C)CN2CCCCC2)cc1
5. COC(=O)NC1(NC(=O)OC)NC(=O)c2cc(OC)c(OC)cc2N1
6. c1ccc(CSC2(SCc3ccccc3)CCCC2)cc1

39.6 µM
> 100 µM
31.1 µM
> 100 µM
> 100 µM
> 10 µM

Record TGI per entry; entries follow.
1. CO/[N+]([O-])=C\C(=O)N/C=C/C(=O)O
2. CC1=C(C#N)C23C(=O)c4ccccc4C(O)=C2C(=O)C=CC3(O)N1 (stereo not drawn)

["> 100 µM", "25.5 µM"]

Record TGI per entry; entries follow.
1. C=C[C@]1(O)CCC[C@]2(C)C(=O)CCC12C (stereo partly drawn)
2. Fc1ccc(-c2nn3c(CNc4ccccc4)nnc3s2)cc1
3. Cc1nnc(N=Nc2c(O)[nH]c3c(Cl)cc(Cl)cc23)n1N
4. CNC(=O)c1c(NC(=O)c2ccc(C(F)(F)F)cc2)sc2c1CCC(=O)C2
5. Cc1ccc2[nH]c3c(C)c4c(c(C)c3c2c1)CN(C)C=C4
6. CC1=C(C)CC(C#N)(C#N)C(C#N)(C#N)C1

1: > 100 µM; 2: > 100 µM; 3: > 100 µM; 4: > 65.9 µM; 5: 1.99 µM; 6: > 10 µM

Could you please provide reported TGI for "CC1(C)O[C@H]([C@H](O)c2nnc3ccc(Cl)nn23)[C@@H]([C@H]2COC(C)(C)O2)O1" ? Thanks!
> 100 µM
